assay remarks: AP1 Signaling Pathway (AID 357);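 also: ME-180 reporter cells stimulated with EGF at its EC50 level; % is scaled to controls: 0 for no effect and ±100 for the full control effect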
conditions: ME-180 (cervical carcinoma) AP-1-bla reporter, EGF-induced, beta-lactamase ratio, 5 h; at 7.69 µM (top of the series) unless noted
Results filed as inconclusive are left out. The source made the active and inactive calls. Calls follow the shape of the dose curve; as a rule, active = well fitted curve in either direction with a large enough effect (not every such curve was filed as active); inconclusive = small, poorly fitted or top-dose-only effect, or another doubt; inactive = flat fitted curve, though single readings scatter.
Task for the reader: assign each of the following molecules its reported activity change, negative = inhibition.

In the examples that follow, each entry is paired with its recorded activity change, negative = inhibition.
molecule	endpoint	endpoint result
N#Cc1cccc(-c2nccc(NCc3ccccc3)n2)c1	activity change, negative = inhibition	-20.8% (inactive)
N#Cc1cccc(-c2nc(Nc3ccccc3)c3ccccc3n2)c1	activity change, negative = inhibition	3.06% (inactive)
CN(C)c1ncc2nc(-c3cccs3)c(=O)n(-c3ccccc3)c2n1	activity change, negative = inhibition	-9.21% (inactive)
CN(C)c1ncc2nc(-c3cc(F)cc(F)c3)c(=O)n(C)c2n1	activity change, negative = inhibition	13.4% (inactive)
CN(C)c1ccc(-c2cncnc2N(C)Cc2ccco2)cc1	activity change, negative = inhibition	-22.2% (inactive)
CN(C)Cc1ccccc1-c1cc(N(C)C)ncn1	activity change, negative = inhibition	-1.87% (inactive)
Cn1c(=O)c(-c2ccc(F)c(F)c2)nc2cncnc21	activity change, negative = inhibition	10% (inactive)
O=S(=O)(c1ccccc1)N1CCC2(CC1)CN(Cc1ccccc1)C2	activity change, negative = inhibition	7.31% (inactive)

Would you mind giving activity change, negative = inhibition for every molecule in the list below?
1. O=S(=O)(c1ccccc1)N1CCC2(CCCN(C(c3ccccc3)c3ccccc3)C2)CC1
2. Cn1cccc1C(=O)N1CCC2(CCCN(c3ccncc3)C2)CC1
3. CN1CCC2(CC1)CCN(C(=O)c1cccc(F)c1)CC2
4. CN(C)c1ncc2nc(-c3ccc(F)cc3)c(=O)n(C3CC3)c2n1
5. CC(=O)N1CCC2(CC1)CCN(c1cccc(-c3ccccc3)c1)CC2

A)
-2.18% (inactive)
11.9% (inactive)
2.25% (inactive)
18.2% (inactive)
-13.2% (inactive)
